Where these numbers come from: BigSolDB 2.1

recorded_conditions: in methanol, 288.15 K
measured_attribute: solubility (mole fraction)

Lookup: Reported solubility (mole fraction) for `CCOC(=O)Cc1c(C(=O)OCC)sc(N(CC(=O)OCC)CC(=O)OCC)c1C#N` : what is it?
Found: 0.0018

====

recorded_conditions: in n-propanol, 295.65 K
measured_attribute: solubility (mole fraction)

Lookup: Reported solubility (mole fraction) for `CCOC(=O)Cc1c(C(=O)OCC)sc(N(CC(=O)OCC)CC(=O)OCC)c1C#N` : what is it?
Found: 0.0018

====

recorded_conditions: in ethanol, 318.15 K
measured_attribute: solubility (mole fraction)
Answer with a bare number; do not write a unit.

Lookup: Reported solubility (mole fraction) for `CCOC(=O)Cc1c(C(=O)OCC)sc(N(CC(=O)OCC)CC(=O)OCC)c1C#N` : what is it?
Found: 0.00768
